- experimental.system: Mitogen-activated protein kinase kinase kinase 5 (Homo sapiens) (UniProt Q99683)
- Sequence (whole entry): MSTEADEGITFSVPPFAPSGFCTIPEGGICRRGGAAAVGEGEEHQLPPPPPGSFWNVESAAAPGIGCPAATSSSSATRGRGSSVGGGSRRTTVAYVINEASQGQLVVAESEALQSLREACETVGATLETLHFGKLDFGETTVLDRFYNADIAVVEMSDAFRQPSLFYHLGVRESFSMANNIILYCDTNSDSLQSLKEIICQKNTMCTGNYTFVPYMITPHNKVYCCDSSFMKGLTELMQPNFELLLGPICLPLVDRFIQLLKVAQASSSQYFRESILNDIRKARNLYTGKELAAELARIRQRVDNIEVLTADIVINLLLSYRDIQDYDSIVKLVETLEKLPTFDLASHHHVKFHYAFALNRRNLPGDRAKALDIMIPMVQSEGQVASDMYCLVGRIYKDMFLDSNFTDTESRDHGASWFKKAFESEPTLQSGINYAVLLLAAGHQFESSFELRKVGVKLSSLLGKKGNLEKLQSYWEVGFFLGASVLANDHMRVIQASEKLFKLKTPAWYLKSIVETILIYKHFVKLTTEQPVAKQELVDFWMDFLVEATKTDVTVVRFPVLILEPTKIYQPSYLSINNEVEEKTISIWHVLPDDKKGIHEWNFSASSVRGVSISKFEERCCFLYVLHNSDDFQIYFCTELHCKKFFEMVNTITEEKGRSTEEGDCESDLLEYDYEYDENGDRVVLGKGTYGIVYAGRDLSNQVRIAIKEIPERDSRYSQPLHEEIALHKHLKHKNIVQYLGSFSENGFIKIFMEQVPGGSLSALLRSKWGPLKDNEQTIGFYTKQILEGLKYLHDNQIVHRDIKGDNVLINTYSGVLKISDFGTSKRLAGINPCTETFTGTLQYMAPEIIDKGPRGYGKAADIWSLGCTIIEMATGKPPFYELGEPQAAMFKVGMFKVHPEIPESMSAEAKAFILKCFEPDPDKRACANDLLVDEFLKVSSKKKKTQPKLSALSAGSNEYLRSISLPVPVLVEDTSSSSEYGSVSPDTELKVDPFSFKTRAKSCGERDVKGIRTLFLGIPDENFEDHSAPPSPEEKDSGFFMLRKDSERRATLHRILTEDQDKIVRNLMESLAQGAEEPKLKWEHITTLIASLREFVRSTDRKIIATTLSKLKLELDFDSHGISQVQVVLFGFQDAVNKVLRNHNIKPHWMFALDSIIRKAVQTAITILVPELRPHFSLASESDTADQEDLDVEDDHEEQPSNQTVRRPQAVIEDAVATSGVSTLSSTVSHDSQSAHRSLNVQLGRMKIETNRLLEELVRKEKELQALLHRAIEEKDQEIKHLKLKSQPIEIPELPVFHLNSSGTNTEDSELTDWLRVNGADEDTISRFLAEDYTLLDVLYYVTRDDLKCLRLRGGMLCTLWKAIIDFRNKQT
- run.description: Inhibition of ASK1 expressed in Escherichia coli or baculovirus-infected insect cells at 667 uM by IMAP assay
metric.name: inhibition (%)

{"columns": ["compound", "inhibition [%]"],
 "data": [
  ["Cc1ccc(NC(=O)Nc2cc(C(C)(C)C)nn2-c2ccccc2)cc1", 13],
  ["Cc1ccc(NC(=O)Nc2cccc(C(F)(F)F)c2)cc1", 9],
  ["c1ccc2[nH]ncc2c1 [INDAZOLE]", 31]
]}

1. CC(C)(C)c1cc(NC(=O)Nc2ccccc2)no1
2. Nc1[nH]cnc2ncnc1-2
3. Nc1n[nH]c2ncccc12
4. c1ccc(Nc2ccccc2)cc1
Order the records so the highest inhibition appears first and the lowest last. // format: requested-order list of labels
2, 3, 1, 4
(2: 88%, 3: 52%, 1: 3%, 4: 2%)

I. c1ccc(-c2cnc3nccnn23)cc1
II. O=C(Nc1ccccc1)Nc1cccc(C(F)(F)F)c1
inhibition comparison. Which is larger, I or II ? Identify your pick by its label.
I

1. Nc1[nH]nc2ccccc12
2. Cc1ccc(C(=O)NC2CC2)cc1F
3. Nc1ncccc1OCc1ccccc1
Sequence the entries by inhibition, beginning with the highest number. Output spec: labels arranged per the requested ranking.
1, 3, 2
(1: 80%, 3: 39%, 2: 9%)

a. Nc1ccc2ncc(-c3ccccc3)n2n1
b. c1ccc(Nc2ncccn2)cc1
Sort a and b by inhibition descending and give the first. Answer by quoting the chosen item's label.
a
